Property: Kd; scope: individual binders
- system.under.test: T1, human IL-2Rβ (human, UniProt P14784 27-240, limits assumed)
- T1 construct: also called hIL-2Rβ; IL-2 receptor beta
- T1 sequence (looked up): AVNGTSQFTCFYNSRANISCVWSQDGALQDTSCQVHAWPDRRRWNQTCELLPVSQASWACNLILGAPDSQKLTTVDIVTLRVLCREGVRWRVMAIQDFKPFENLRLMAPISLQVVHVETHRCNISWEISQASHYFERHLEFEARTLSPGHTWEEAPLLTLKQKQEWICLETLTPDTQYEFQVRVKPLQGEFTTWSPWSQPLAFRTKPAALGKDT
- assay.name: SPR, steady state
Use nM as the unit, but write only the number.

1. hIL-15 V49R/K10W (ligand) NWVNVISDLWKIEDLIQSMHIDATLYTESDVHPSCKVTAMKCFLLELQRISLESGDASIHDTVENLIILANNSLSSNGNVTESGCKECEELEEKNIKEFLQSFVHIVQMFINTGGGGSGHHHHHHHHGGGLNDIFEAQKIEWHE ... 185

Now for the binder whose Kd we want.
Data point: hIL-15 V49R/K11I (ligand) NWVNVISDLKIIEDLIQSMHIDATLYTESDVHPSCKVTAMKCFLLELQRISLESGDASIHDTVENLIILANNSLSSNGNVTESGCKECEELEEKNIKEFLQSFVHIVQMFINTGGGGSGHHHHHHHHGGGLNDIFEAQKIEWHE ; Kd = 76
